- System: DLD-1
- Assay text: NCI tumour cell line growth inhibition, 48 h
Active and inactive are the calls of the source. No stated cut-off is given here; in the data, active = GI50 up to about 1.1 µM and inactive = higher.
Mark one answer only. Choices: active, inactive

Worked set:
compound=O=C(NO)C(=O)Nc1cc(Cl)ccc1Cl class_assignment=inactive
compound="O=C(O)c1cc2c3c(c1)[C@H]1C=CC[C@H]1CN3CC1CC=CC21 (some centres undefined)" class_assignment=inactive

Lookup: Hi, do you know how CSc1nc(NC2OC(COC(C)=O)C(OC(C)=O)C(OC(C)=O)C2OC(C)=O)c(/N=C(\C)C(C)=O)c(=O)[nH]1 (centres undefined) came out in this test?
Found: inactive

Lookup: Hi, do you know how CCOC(=O)/C([O-])=C(\C(=O)OCC)[n+]1c(C)n(C)c2ccccc21 came out in this test?
Found: inactive

Lookup: Hi, do you know how CCOC(=O)CCCO came out in this test?
Found: inactive

Lookup: Hi, do you know how COC1=CC(=O)c2ccccc2C1(C)C1=NC(C)(C)CO1 (centres undefined) came out in this test?
Found: inactive

---

- System: OVCAR-5
- Assay text: NCI tumour cell line growth inhibition, 48 h
Active and inactive are the calls of the source. No stated cut-off is given here; in the data, active = GI50 up to about 1.1 µM and inactive = higher.
Measurement kind: GI50

Example entries and their recorded answers appear below.
compound=CSc1ccc(/C=C2\N=C(c3ccccc3)N(/N=C/c3cc4cc(C)ccc4nc3Cl)C2=O)cc1 observed="22.9 µM (inactive)"
compound="COc1ccc(C23C(=O)c4ccccc4N2O[C@H]2C(=O)N(c4ccccc4)C(=O)[C@H]23)cc1 (stereo not given in full)" observed="> 100 µM (inactive)"

Would you be so kind as to report GI50 for each listed record?
1. Cn1c(=O)c2c(nc3n(Cc4ccccc4)c(=O)c(Br)cn23)n(C)c1=O
2. COC(=O)/C=C\[C@@H]1[C@H](C)N1S(=O)(=O)c1ccc(C)cc1 (stereo not given in full)

Found:
1: > 100 µM (inactive); 2: > 100 µM (inactive)

# GI50 (compound: O=C(CCc1ccc(O)c(O)c1)NCCc1ccccc1 ) is > 100 µM (inactive)

---

- System: Hs-578T
- Assay text: NCI tumour cell line growth inhibition, 48 h
Active and inactive are the calls of the source. Cut-off read from the data, not from the text of the source: active = GI50 up to about 1.1 µM and inactive = higher.
Record form. Attribute: GI50. Fill in for each entry.

Example entries and their recorded answers appear below.
compound=O=c1c(Cl)c(Cl)cnn1CCCl observed="3.25 µM (inactive)"
compound=Brc1ccc(/C(N=N/C(=N\Sc2ccccc2)c2ccc(Br)cc2)=N/Sc2ccccc2)cc1 observed="> 100 µM (inactive)"

Would you be so kind as to report GI50 for each listed record?
1. O=C(O)c1ccc(OCc2ccccc2)c(Cl)c1
2. Cc1nn(CNc2ccc(F)c(Cl)c2)c(=S)n1/N=C/c1ccc(-c2ccc(Cl)cc2Cl)o1
3. CCN(CC)c1ccc2c(c1)Oc1ccc(N(C(C)=O)c3ccccc3)cc1C21OC(=O)c2ccccc21 (configuration not stated)
4. CC1(C)N=c2c(ncn2N)=C(C(N)=O)N1
5. COC(=O)c1cc(C)n(CN(Cn2nc(C(=O)OC)cc2C)c2ccccc2)n1
6. COc1ccc2cc(/C=N/NC(=O)Nc3ccccc3)ccc2c1

Found:
1. > 100 µM (inactive)
2. 15.5 µM (inactive)
3. 58.3 µM (inactive)
4. > 100 µM (inactive)
5. > 100 µM (inactive)
6. > 100 µM (inactive)

---

- System: HOP-62
- Assay text: NCI tumour cell line growth inhibition, 48 h
The source made the active and inactive calls. Rule as the data show it: active = GI50 up to about 1.1 µM and inactive = higher.
Measurement kind: GI50

Example entries and their recorded answers appear below.
molecule="O=C(Nc1cccc(C(F)(F)F)c1)C(=O)C(C(=O)c1ccc(Cl)c(Cl)c1)C1OC(=O)c2ccccc21 (configuration not stated)" observed="28.3 µM (inactive)"
molecule="CC(O)CNC1=CC(=O)C(=O)c2ccccc21 (configuration not stated)" observed="18.2 µM (inactive)"
molecule=O=c1c(Cc2ccc(Cl)cc2)nnc2sc(-c3ccc([N+](=O)[O-])cc3)nn12 observed="49.1 µM (inactive)"

Would you be so kind as to report GI50 for each listed record?
1. Cc1ccc2c3c4c(ccc13)C(C)(C)OC4=C(C(C)C)C2=O
2. Brc1ccc(/C(N=N/C(=N\Sc2ccccc2)c2ccc(Br)cc2)=N/Sc2ccccc2)cc1
3. Cc1ccccc1NC(=O)Cc1csc2[n+]1C(=O)/C(=C/c1ccc([N+](=O)[O-])cc1)S2

Found:
1: 15.6 µM (inactive); 2: > 100 µM (inactive); 3: 33.5 µM (inactive)

Would you be so kind as to report GI50 for each listed record?
1. N=c1c2sc3nc4ccccc4n3c2ncn1Cc1ccccc1
2. CCc1cc2c(cc1O)CC[C@@H]1[C@@H]2CC[C@]2(C)[C@@H](O)CC[C@@H]12
3. O=[PH]1c2ccccc2Nc2ccccc21
4. Cc1ccc(SSCCCS(=O)O)cc1
5. CC1(C)OCC2OC3([C@H](O)CCO)OC(C)(C)OC3C2O1 (some centres not stated)
6. c1ccc2c(CN3CCC(C4CCN(Cc5cccc6ccccc56)CC4)CC3)cccc2c1
7. CNC1C(O)C(OC2C(N)CC(N)C(OC3OC(CN)=CCC3N)C2O)OCC1(C)O (configuration not stated)

Found:
1. > 100 µM (inactive)
2. 6.14 µM (inactive)
3. > 100 µM (inactive)
4. 29.2 µM (inactive)
5. > 100 µM (inactive)
6. 25.4 µM (inactive)
7. > 100 µM (inactive)

Would you be so kind as to report GI50 for each listed record?
1. COc1cccc2c1C(=O)c1c(O)c3c(c(O)c1C2=O)C[C@@](O)(/C(C)=N/NC(=O)c1ccccc1)C[C@@H]3OC1CC(N)C(O)C(C)O1 (some centres not stated)
2. CC/C(Cl)=N\OC(=O)Nc1ccccc1OC(F)(F)F
3. Nc1nc2cc(CNc3ccc(C(=O)O)cc3)ccc2nc1-c1ccccc1
4. O=C1CCC(=O)N1n1c(Cc2ccccc2)n[nH]c1=O
5. Cc1cc(C)n(-c2nc(-n3nc(C)cc3C)nc(-n3nc(C)cc3C)n2)n1
6. CCOC(=O)/C(=C/c1ccc(C#N)cc1)N(CC)CC
7. CN(C)CCCCN1CCc2c(n(C)c3ccccc23)C1=O

Found:
0.122 µM (active)
19 µM (inactive)
> 100 µM (inactive)
> 100 µM (inactive)
> 100 µM (inactive)
> 100 µM (inactive)
38.7 µM (inactive)

Would you be so kind as to report GI50 for each listed record?
1. O=c1c(Cl)c(Cl)cnn1CCCl
2. Cn1cnc([N+](=O)[O-])c1Sc1nnc(-c2ccc(Cl)cc2)n1C

Found:
17.3 µM (inactive)
> 100 µM (inactive)

Would you be so kind as to report GI50 for each listed record?
1. COc1cc(N/N=C/C#N)cc(OC)c1OC
2. COc1cccc(C2CC23C(=O)NC(=O)NC3=O)c1 (configuration not stated)
3. Cn1c2ccccc2c2c(-c3ccccc3)cc3c(c21)C(=O)C=CC3=O
4. O=C(O)CCCCCO
5. COc1ccc(/C=C2\C(=O)N(C(=O)Cc3ccccc3)N=C2C)cc1OC
6. O=C1CCC2(CCC(=O)NC2=O)C(=O)N1

Found:
["> 10 µM (inactive)", "> 100 µM (inactive)", "> 7.4 µM (inactive)", "> 100 µM (inactive)", "> 100 µM (inactive)", "> 100 µM (inactive)"]

Would you be so kind as to report GI50 for each listed record?
1. C=C=C(CC1CCCCC1=O)S(=O)(=O)c1ccccc1 (configuration not stated)
2. CC1(C)N=c2c(ncn2N)=C(C(N)=O)N1
3. CCCCCC(=O)OC[n+]1cccc(-c2c(COC(=O)NC(C)C)c(COC(=O)NC(C)C)c3n2CCC3)c1
4. Nc1ccc2[nH]c3c(-c4ccccc4)nccc3c2c1

Found:
["> 10 µM (inactive)", "> 100 µM (inactive)", "44.1 µM (inactive)", "> 84.5 µM (inactive)"]

Would you be so kind as to report GI50 for each listed record?
1. CC(=O)OCC1OC(Sc2nc(-c3ccc(C)cc3)c(C#N)c(=O)n2C2OC(COC(C)=O)C(OC(C)=O)C(OC(C)=O)C2OC(C)=O)C(OC(C)=O)C(OC(C)=O)C1OC(C)=O (configuration not stated)
2. Cc1cc(N)ccc1/N=N\c1ccc(S(=O)(=O)CCOS(=O)(=O)O)cc1
3. COc1cccc(-c2cc(O)c3c(C)cc(C)nc3n2)c1
4. [N-]=[N+]=CC(=O)OCC(N)C(=O)O (configuration not stated)
5. CCCCCN(CCCCC)CC(C)(C)C(O)c1ccc(OC)c2ccccc12 (configuration not stated)
6. COc1cc(C2SC(=N)Nc3c2c(C)nn3C(=O)c2ccccc2O)cc(OC)c1OC (configuration not stated)

Found:
1: > 100 µM (inactive); 2: 6.1 µM (inactive); 3: 1.09 µM (active); 4: 0.582 µM (active); 5: 22.9 µM (inactive); 6: 6.15 µM (inactive)

Would you be so kind as to report GI50 for each listed record?
1. CCCc1ccc(/N=C\c2cc(OC)c(OC)c(OC)c2)cc1
2. CC1C(O)C2(Oc3cc4c(c5c3[C@@H](CC5O)[C@H]2C)CCC2Cc3nc5c(nc3C[C@@]42C)CC2CCC3C4=C[C@H]6O[C@@]7(O[C@@](C)(CO)C[C@@H]7O)C(C)[C@@]6(O)[C@]4(C)[C@@H](O)CC3[C@]2(C)C5)OC1(C)C (some centres not stated)

Found:
1. > 100 µM (inactive)
2. 0.0715 µM (active)

Would you be so kind as to report GI50 for each listed record?
1. CCOC(=O)/C(=C/c1cccc(Cl)c1)N(CC)CC
2. CC(C)c1ccccc1NC(=O)C(=O)Cc1nc2ccccc2s1

Found:
1. 29.9 µM (inactive)
2. > 100 µM (inactive)

Where these numbers come from: ChEMBL document CHEMBL1201862
